- system_tested: Recombinant human KLK5 (Homo sapiens (Human), UniProt Q9Y337)
- Sequence (Q9Y337 23-293): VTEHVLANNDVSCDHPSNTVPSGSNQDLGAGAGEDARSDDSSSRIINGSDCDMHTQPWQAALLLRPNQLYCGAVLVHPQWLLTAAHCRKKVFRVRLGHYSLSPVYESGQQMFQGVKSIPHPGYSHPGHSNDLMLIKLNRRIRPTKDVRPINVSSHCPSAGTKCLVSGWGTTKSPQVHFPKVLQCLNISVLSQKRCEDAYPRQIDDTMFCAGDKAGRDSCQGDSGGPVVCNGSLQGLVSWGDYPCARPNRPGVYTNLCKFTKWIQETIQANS
- procedure_details: KLK5 assay
Task for the reader: assign each of the following molecules its reported pIC50.
Conceptually, pIC50 converts a concentration in mol/L into minus its log10.

What the record says about "COc1ccc(-c2nc3cc(OC)c(OC)cc3c(=O)o2)c(OC)c1" : pIC50 is 6.00

response.value for "CS(=O)(=O)c1ccccc1-c1nc2cc3c(cc2c(=O)o1)OCCO3" (field: pIC50) = 6.22

====

- system_tested: Recombinant human KLK7 (Homo sapiens (Human))
- procedure_details: KLK7 assay
- condition_parameters: substrate S-2586, 37° C., pH 7.2
Exam item: assign met to entries whose IC50 is below 200 nM and not met to entries at or above 200 nM. Note that a value of exactly 200 nM receives not met.

Given "COc1ccc(-c2nc3cc(OC)c(OC)cc3c(=O)o2)c(OC)c1" , is recorded IC50 strictly lower than 200 nM? met

Threshold test, IC50 < 200 nM: "COc1ccc(-c2nc3cc4c(cc3c(=O)o2)OCCCO4)c(OC)c1" met

Is the reported IC50 for "CCOc1cc2c(=O)oc(-c3ccccc3S(C)(=O)=O)nc2cc1OC" strictly below 200 nM? not met

Please let me know if "COc1ccccc1-c1nc2cc3c(cc2c(=O)o1)OCCO3" shows IC50 below 200 nM. met

Does "O=c1oc(-c2ccccc2Cl)nc2cc3c(cc12)OCCCO3" have IC50 strictly under 200 nM? met

hey, is IC50 for "CS(=O)(=O)c1ccccc1-c1nc2cc3c(cc2c(=O)o1)OCCO3" lower than 200 nM or not? met

Find out if reported IC50 for "CC(C)c1ccc(-c2nc3cc4c(cc3c(=O)o2)OCCCO4)c(C(C)C)c1" is less than 200 nM not met

====

- system_tested: Recombinant human KLK7 (Homo sapiens (Human), UniProt P49862)
- Sequence (P49862 30-253): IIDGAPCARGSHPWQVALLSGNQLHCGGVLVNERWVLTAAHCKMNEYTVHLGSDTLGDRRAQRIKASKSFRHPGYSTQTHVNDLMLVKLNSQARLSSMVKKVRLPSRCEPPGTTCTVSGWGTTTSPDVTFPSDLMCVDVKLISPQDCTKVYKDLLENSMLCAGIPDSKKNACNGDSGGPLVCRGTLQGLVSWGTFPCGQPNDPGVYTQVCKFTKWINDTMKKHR
- procedure_details: KLK7 assay
- condition_parameters: substrate S-2586, 37° C., pH 7.2
readout_label: pIC50
The read-out pIC50 is expressed as -log10 of concentration in moles per litre.

response.value for COc1ccccc1-c1nc2cc3c(cc2c(=O)o1)OCCCO3 [Compound 6] (field: pIC50) = 7.10

According to the records, this compound CSc1ccccc1-c1nc2cc3c(cc2c(=O)o1)OCCCO3 [Compound 9] displays pIC50 of 6.64

In plain terms, O=c1oc(-c2ccccc2Cl)nc2cc3c(cc12)OCCO3 [Compound 16] has a documented pIC50 of 6.83

Item: CCOc1cc2c(=O)oc(-c3ccccc3OC)nc2cc1OC [Compound 5] | pIC50: 7.07

Quick note, pIC50 for CS(=O)(=O)c1ccccc1-c1nc2cc3c(cc2c(=O)o1)OCCCO3 [Compound 10] landed at 6.73

Value source: patent US9695194B2
